target: T1, human PD-L1 (human, UniProt Q9NZQ7 19-290); test: flow cytometry, CHO cells stably expressing huPD-L1, 33.3 nM, PE anti-human Fc
T1 construct: whole, on cells; also called huPD-L1
T1 sequence (Q9NZQ7 19-290): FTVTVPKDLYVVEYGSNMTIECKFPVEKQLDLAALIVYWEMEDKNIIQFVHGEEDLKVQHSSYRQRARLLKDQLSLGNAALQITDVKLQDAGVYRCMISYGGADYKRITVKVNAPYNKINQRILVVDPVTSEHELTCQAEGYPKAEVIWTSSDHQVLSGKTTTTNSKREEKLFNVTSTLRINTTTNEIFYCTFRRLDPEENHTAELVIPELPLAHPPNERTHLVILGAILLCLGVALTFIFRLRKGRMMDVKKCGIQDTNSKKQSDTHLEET
valueKind: Fold change to WT (fold)

Q33R/M47V/T62N/A71G CD80 IgV-Fc (Fc fusion, not shown: a dimerising Fc or GST) VIHVTKEVKEVATLSCGHNVSVEELAQTRIYWRKEKKMVLTMMSGDVNIWPEYKNRTIFDINNNLSIVILGLRPSDEGTYECVVLKYEKDAFKREHLAEVTLSVKAD    146

a: E24D/Q27R/E35D/T41S/M47V/L85Q CD80 IgV-Fc (Fc fusion, not shown: a dimerising Fc or GST) VIHVTKEVKEVATLSCGHNVSVEDLARTRIYWQKDKKMVLSMMSGDVNIWPEYKNRTIFDITNNLSIVILALRPSDEGTYECVVQKYEKDAFKREHLAEVTLSVKAD
b: E35D/D46E/M47L/V68M/L85Q/F92L CD80 IgV-Fc (Fc fusion, not shown: a dimerising Fc or GST) VIHVTKEVKEVATLSCGHNVSVEELAQTRIYWQKDKKMVLTMMSGELNIWPEYKNRTIFDITNNLSIMILALRPSDEGTYECVVQKYEKDALKREHLAEVTLSVKAD
Hi, I'm comparing a with b and wondering which one has the bigger number for Fold change to WT. Any idea? API: response body contains the label of the selected item. b
(b: 158 fold, a: 34.3 fold)

Data provenance is patent US20210130436A1.
